Target: fusion protein PRR
Sequence (chain, as listed by the source): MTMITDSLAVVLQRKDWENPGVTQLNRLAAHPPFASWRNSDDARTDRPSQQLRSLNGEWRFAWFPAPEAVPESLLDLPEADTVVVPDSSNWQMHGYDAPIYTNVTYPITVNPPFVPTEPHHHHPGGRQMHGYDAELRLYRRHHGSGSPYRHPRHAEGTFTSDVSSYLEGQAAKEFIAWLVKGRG
property_measured: relative cleavage efficiency (%)
Give bare numbers, in %.

Q: Could you share which relative cleavage efficiency value was measured for OmpT protease variant OmpT D97C (protein) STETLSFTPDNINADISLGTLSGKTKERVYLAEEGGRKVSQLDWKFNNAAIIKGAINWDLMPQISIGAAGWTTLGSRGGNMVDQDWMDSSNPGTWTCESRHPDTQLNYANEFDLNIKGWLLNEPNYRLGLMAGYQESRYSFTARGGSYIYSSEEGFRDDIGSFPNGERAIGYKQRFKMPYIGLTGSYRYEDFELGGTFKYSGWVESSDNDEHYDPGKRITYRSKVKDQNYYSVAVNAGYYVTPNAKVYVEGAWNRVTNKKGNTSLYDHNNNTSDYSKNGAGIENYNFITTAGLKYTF ?
A: 4
